These data points were gathered from PubChem BioAssay (NCATS).

# target_of_assay: Aldehyde dehydrogenase, mitochondrial (Homo sapiens) (UniProt P05091)
# assay_comment: qHTS for Inhibitors of the Aldehyde Dehydrogenase Family (ALDH2) Primary screen (AID 2061308); note: nearly all actives have a fitted effect of over 55% in size
# experimental_context: ALDH2 enzyme inhibition qHTS, 1536-well; series mostly up to 56 µM
Inconclusive results are not listed. Active and inactive are the calls of the source. Calls come from the whole dose curve; as a rule, active = well fitted inhibition curve with a large enough effect; inconclusive = small, poorly fitted or top-dose-only effect; inactive = flat fitted curve, though single readings scatter.
Select the matching outcome among active, inactive

Give the logged outcome of this assay for the following compound: Fc1cccc(-c2nc3ccccc3s2)c1
inactive

State the result this test recorded for O=S(=O)(Nc1nc(CN2CCOCC2)nc2sc3c(c12)CCCC3)c1ccc2ccccc2c1 .
inactive

Assay outcome for CC(C)(C)c1ccc(CN2CCN(C(c3ccccc3)c3ccc(Cl)cc3)CC2)cc1 (centres undefined) : what was it?
inactive

Give the logged outcome of this assay for the following compound: O=S(=O)(Nc1ccc(O)c(NS(=O)(=O)c2ccccc2)c1)c1ccccc1
inactive

Recorded test call requested for N#Cc1no[n+]([O-])c1-c1ccccc1
inactive

Call for entry C=C1C(=O)O[C@@H]2/C=C(/C)[C@@H](OC(C)=O)C/C=C(\C)C[C@@H](OC(=O)/C(=C/CO)CO)[C@@H]12 :
inactive

What is the recorded call for this compound in the test? Nc1ncc(S(=O)(=O)N2CCOCC2)s1
inactive

Could you check what this test reported for CC(=O)OC1C(=O)C2(C)C(O)CC3OCC3(OC(C)=O)C2C(OC(=O)c2ccccc2)C2(O)CC(OC(=O)C(O)C(NC(=O)c3ccccc3)c3ccccc3)C(C)=C1C2(C)C (centres undefined) ?
inactive

// param item: COc1cc(Nc2nc(-c3ccncc3)nc3ccccc23)ccc1F ; yields the recorded call
inactive

// outcome(item) with item = COc1cc(F)c(S(=O)(=O)N2CCN(S(=O)(=O)c3ccc(NC(C)=O)cc3)CC2)c(F)c1
inactive

Lab log entry: O=[S+]([O-])(Nc1cnc2ccccc2c1)c1ccc(NCc2ccc(Cl)cc2O)cc1 — outcome as called in the assay?
inactive

GET /call?item= C=CCNc1nnc(-c2cccc3ccccc23)o1 returns the recorded outcome of this test.
inactive

What outcome does the record of this test show for Clc1cccc(CSc2nc3ncc(Br)cc3[nH]2)c1 ?
inactive

Please share the test call associated with CCN(CC)CCn1c(-c2ccccc2)nc2c(N3CCOCC3)nc(C)nc21 .
inactive

# lookup: test call for COc1ccc([S+](=O)([O-])N2CCCN([S+](=O)([O-])c3ccc(OC)c(N)c3)CC2)cc1N
inactive

Dear colleague, could you share the recorded outcome for Cn1c2cc(B(O)O)sc2c2cnn(Cc3ccccc3F)c(=O)c21 when you have a moment?
inactive

GET /call?item= O=P(c1ccccc1)(c1ccccc1)c1cnc2ccccn12 returns the recorded outcome of this test.
inactive

What is the recorded call for this compound in the test? O=[S+]1([O-])N=C(Oc2cccnc2)c2ccccc21
inactive

Name the outcome recorded for O=C1CCc2cc(S(=O)(=O)Nc3cccc(F)c3)ccc2N1 in the assay.
inactive

Record request — test call for Cc1ccc(S(=O)(=O)Nc2cc3c(cc2C(=O)Nc2nc(-c4ccccc4)cs2)OCO3)cc1
inactive

In this assay, the call recorded for Cc1cc(C)c(S(=O)(=O)Nc2cccc3cccnc23)c(C)c1 was what?
inactive

Look up the recorded call for NCC(CNc1nc(Nc2cccc(NC(=O)N3CCCC3)c2)ncc1I)C(=O)c1cccs1 (centres undefined) in this test.
active

Give the logged outcome of this assay for the following compound: O=C(CNC(=O)c1ccc2cc[nH]c2c1)OC(C(=O)Nc1cc(C(F)(F)F)ccc1Cl)c1ccccc1 (centres undefined)
inactive

Write down the call the test reported for this compound. Item: CN(Cc1nccs1)c1ncnc2ccc(-c3ccc4c(c3)OCO4)cc12
inactive

For this compound, state the assay outcome: N=c1c2c(ccn1CCCc1ccccc1)Oc1ccc3ccccc3c1C2c1ccccc1 (centres undefined)
inactive

Called result for COC(=O)N[C@H](C(=O)N1[C@@H]2CC[C@@H](C2)[C@H]1c1nc2ccc(-c3ccc4c(c3)C(F)(F)c3cc(-c5cnc([C@@H]6CCC7(CC7)N6C(=O)[C@@H](NC(=O)OC)C(C)C)[nH]5)ccc3-4)cc2[nH]1)C(C)C
inactive

Short answer needed: outcome of this test for COc1cccc(OC)c1C1=Nn2c(nnc2-c2ccccc2O)SC1 ?
inactive

Please indicate how the test categorized Cc1csc(CNc2ncnc3ccc(-c4ccoc4)cc23)c1 .
inactive

Outcome? Cc1cccc(S(=O)(=O)N2CCN(S(=O)(=O)c3ccc4c(c3)OCCO4)CC2)c1
inactive

Dear colleague, could you share the recorded outcome for O=C(Nc1ccc(Cl)c(C(F)(F)F)c1)Nc1cccc(-c2ccncc2)n1 when you have a moment?
inactive

// return assay outcome for Cn1cc(C[C@H](C(=O)O)N2C(=O)c3ccc(C(=O)O)cc3C2=O)c2ccccc21
inactive

What did the test return for O=C1CCCC2=C1C1(CCSC1)N=C(Nc1nc3ccccc3o1)N2 (centres undefined) ?
inactive

Please indicate how the test categorized Nc1scc2c(C(=O)O)nn(-c3ccccc3)c(=O)c12 .
inactive

Returns: the outcome recorded for N#Cc1nc(-c2cccc3ccccc23)oc1NC1CNC1 in this assay.
inactive

For CCC(=O)NC(c1cccs1)c1ccc2cccnc2c1O (centres undefined) , what call appears in the results of this test?
inactive

Answer briefly: the call reported for CC(C)(O)/C=C/C(=O)[C@](C)(O)[C@H]1[C@H](O)C[C@@]2(C)[C@@H]3CC=C4[C@@H](C[C@H](O[C@@H]5O[C@H](CO)[C@@H](O)[C@H](O)[C@H]5O)C(=O)C4(C)C)[C@]3(C)C(=O)C[C@]12C in this assay.
inactive

Please state the recorded outcome for this compound: O=C(NC(c1ccco1)c1cc(Cl)c2cccnc2c1O)c1ccccc1 (centres undefined)
inactive

What call does the record list for CCn1cnc2c(NCCc3cccnc3)nc(C#N)nc21 ?
inactive

Which outcome was assigned to Cc1onc(-c2ccc(F)cc2)c1COc1ccc(C(=O)N2CCS(=O)(=O)CC2)cn1 in this test?
inactive
